Source listed as ChEMBL document CHEMBL3885861.

species on record: Rattus norvegicus; experiment: Open TG-GATES - Regimen: Single; type: toxicity, organism-based, Sprague-Dawley; parameters: regimen Single, gender Male, age 6 weeks; details: in vivo, po, 0 mg/kg, 9 h, tissue Plasma, route gavage, dose level Control
Field: TG. Provide a value for each of the compounds that follow.
One number for each entry, in mg/dL.

See these solved cases before continuing.
compound: OCCOCCN1CCN(C(c2ccccc2)c2ccc(Cl)cc2)CC1 (stereo not given) [HYDROXYZINE]
TG [mg/dL]: 21
//
compound: CCC1(c2ccccc2)C(=O)NC(=O)NC1=O [PHENOBARBITAL]
TG [mg/dL]: 35.4
//
compound: O=NN(CCCl)C(=O)NC1CCCCC1 [LOMUSTINE]
TG [mg/dL]: 43.2
//
compound: CN(C)C(=N)N=C(N)N [METFORMIN]
TG [mg/dL]: 35.6

Next up:
QUERY: Any idea what TG was measured for CC(C)N(CCC(C(N)=O)(c1ccccc1)c1ccccn1)C(C)C (stereo not given) [DISOPYRAMIDE] ?
RESULT: 61.4
